# experiment_summary: Oral bioavailability in mouse at 15 mg/kg
# Format: ADME, organism-based
# run_parameters: in vivo

structure_as_smiles: CNCCN1CCC(c2ccc3[nH]c(-c4ccc(OC)c(OC)c4)c(C(C)C)c3c2)CC1
unit_descriptor: %
bioavailability: 62

====

# measured_on: Toll-like receptor 9 (Homo sapiens, UniProt Q9NR96)
# Sequence (Q9NR96 whole entry): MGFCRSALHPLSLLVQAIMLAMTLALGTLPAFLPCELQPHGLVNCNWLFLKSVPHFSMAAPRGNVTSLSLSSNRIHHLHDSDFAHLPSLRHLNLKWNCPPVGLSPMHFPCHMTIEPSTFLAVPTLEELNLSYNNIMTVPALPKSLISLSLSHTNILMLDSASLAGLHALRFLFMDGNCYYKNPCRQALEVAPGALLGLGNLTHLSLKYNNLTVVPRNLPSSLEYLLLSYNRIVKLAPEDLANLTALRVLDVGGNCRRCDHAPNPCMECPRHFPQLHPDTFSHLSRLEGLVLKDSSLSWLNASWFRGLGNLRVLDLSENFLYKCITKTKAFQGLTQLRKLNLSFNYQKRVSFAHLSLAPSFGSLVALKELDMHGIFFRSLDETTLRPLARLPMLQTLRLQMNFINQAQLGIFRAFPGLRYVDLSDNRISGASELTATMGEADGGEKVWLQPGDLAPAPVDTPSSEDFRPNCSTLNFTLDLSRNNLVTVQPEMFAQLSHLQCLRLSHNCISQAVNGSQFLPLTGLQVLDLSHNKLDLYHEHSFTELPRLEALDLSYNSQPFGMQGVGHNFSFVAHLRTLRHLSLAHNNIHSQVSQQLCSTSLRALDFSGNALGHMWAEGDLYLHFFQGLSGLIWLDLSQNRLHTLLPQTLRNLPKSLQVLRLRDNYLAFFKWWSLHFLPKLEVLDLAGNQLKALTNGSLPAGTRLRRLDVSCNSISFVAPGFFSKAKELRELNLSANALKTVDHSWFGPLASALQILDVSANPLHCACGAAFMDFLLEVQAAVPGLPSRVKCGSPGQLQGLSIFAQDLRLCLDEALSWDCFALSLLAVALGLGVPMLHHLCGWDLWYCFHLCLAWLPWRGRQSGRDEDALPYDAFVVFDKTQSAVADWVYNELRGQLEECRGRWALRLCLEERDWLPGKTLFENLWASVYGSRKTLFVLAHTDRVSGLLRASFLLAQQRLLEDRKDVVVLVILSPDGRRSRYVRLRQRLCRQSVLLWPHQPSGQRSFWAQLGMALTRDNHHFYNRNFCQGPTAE
# experiment_summary: Antagonist activity at human TLR9 overexpressed in HEK-Blue cells assessed as inhibition of ODN2006-induced NFkappaB and AP-1 activation preincubated for 30 mins followed by ODN2006 stimulation measured after 22 hrs by quanti-blue SEAP assay
# Assay type: cell-based
pIC50: −log10 of the molar value.
endpoint_name: pIC50

structure_as_smiles: CNCCN1CCC(c2ccc3[nH]c(-c4ccc(OC)cc4)c(C)c3c2)CC1
recorded_measurement: 6.30
--
structure_as_smiles: COc1ccc(-c2[nH]c3ccc(C4CCN(Cc5nccn5C)CC4)cc3c2C)cc1OC
recorded_measurement: 6.07
--
structure_as_smiles: CNCCN1CCC(c2ccc3[nH]c(-c4ccccc4C)c(C)c3c2)CC1
recorded_measurement: 5.67
--
structure_as_smiles: COc1ccc(-c2[nH]c3ccc(C4CCN(Cc5ccncc5)CC4)cc3c2C)cc1OC
recorded_measurement: 5.47
--
structure_as_smiles: CNCCN1CCC(c2ccc3[nH]c(-c4ccc(C#N)cc4)c(C)c3c2)CC1
recorded_measurement: 6.28
--
structure_as_smiles: CNCCN1CCC(c2ccc3[nH]c(-c4ccccc4C#N)c(C)c3c2)CC1
recorded_measurement: 6.22
--
structure_as_smiles: CNCCN1CCC(c2ccc3[nH]c(-c4ccc5c(c4)OCO5)c(C)c3c2)CC1
recorded_measurement: 5.92
--
structure_as_smiles: CNCCN1CCC(c2ccc3[nH]c(-c4ccc(OC)c(OC)c4)c(Cl)c3c2)CC1
recorded_measurement: 6.37
--
structure_as_smiles: COc1ccc(-c2[nH]c3ccc(C4CCN(C5CNC5)CC4)cc3c2C)cc1OC
recorded_measurement: 5.63
--
structure_as_smiles: CNCCN1CCC(c2ccc3[nH]c(-c4ccccc4OC)c(C)c3c2)CC1
recorded_measurement: 5.96

====

# measured_on: Toll-like receptor 9 (Mus musculus)
# Sequence (Q9EQU3 whole entry): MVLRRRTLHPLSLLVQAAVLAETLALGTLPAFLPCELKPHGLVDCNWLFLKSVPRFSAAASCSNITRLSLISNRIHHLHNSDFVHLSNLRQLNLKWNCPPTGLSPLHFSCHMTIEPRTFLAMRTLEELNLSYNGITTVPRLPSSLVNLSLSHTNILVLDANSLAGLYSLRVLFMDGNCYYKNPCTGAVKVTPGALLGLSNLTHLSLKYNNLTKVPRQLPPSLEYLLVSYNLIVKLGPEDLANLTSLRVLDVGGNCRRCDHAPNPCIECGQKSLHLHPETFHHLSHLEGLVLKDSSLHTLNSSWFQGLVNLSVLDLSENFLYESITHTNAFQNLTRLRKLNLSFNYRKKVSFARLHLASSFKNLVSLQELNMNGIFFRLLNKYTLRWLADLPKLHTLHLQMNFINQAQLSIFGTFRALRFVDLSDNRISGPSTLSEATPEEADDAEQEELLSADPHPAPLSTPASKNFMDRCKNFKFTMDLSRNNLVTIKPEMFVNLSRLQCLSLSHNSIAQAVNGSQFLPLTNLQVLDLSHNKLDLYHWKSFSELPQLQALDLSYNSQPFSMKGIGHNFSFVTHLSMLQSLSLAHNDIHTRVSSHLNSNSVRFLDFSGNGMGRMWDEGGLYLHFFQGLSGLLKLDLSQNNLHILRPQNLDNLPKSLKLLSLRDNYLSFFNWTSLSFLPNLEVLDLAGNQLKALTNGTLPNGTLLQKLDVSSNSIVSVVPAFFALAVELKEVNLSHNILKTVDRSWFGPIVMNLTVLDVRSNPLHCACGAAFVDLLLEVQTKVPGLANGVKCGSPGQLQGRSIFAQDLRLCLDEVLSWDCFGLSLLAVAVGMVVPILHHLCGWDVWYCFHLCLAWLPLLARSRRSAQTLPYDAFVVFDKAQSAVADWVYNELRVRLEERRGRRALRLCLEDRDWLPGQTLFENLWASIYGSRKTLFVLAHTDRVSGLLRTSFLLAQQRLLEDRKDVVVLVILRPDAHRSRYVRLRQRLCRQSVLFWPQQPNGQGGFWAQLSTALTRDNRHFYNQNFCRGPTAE
pEC50: −log10 of the molar value.

structure_as_smiles: CNCCN1CCC(c2ccc3[nH]c(-c4ccc(OC)c(OC)c4)c(C(C)C)c3c2)CC1
measured_on: Toll-like receptor 9 (Mus musculus)
pEC50: 7.60

====

# measured_on: Toll-like receptor 9 (Homo sapiens)
# experiment_summary: Agonist activity at human TLR9 overexpressed in HEK-Blue cells assessed as NFkappaB expression by reporter gene assay
# Format: cell-based

structure_as_smiles: CNCCN1CCC(c2ccc3[nH]c(-c4ccc(OC)c(OC)c4)c(C(C)C)c3c2)CC1
IC50: > 50 µM

====

# experiment_summary: Clearance in mouse at 3 mg/kg, iv
# Format: ADME, organism-based
# run_parameters: in vivo

structure_as_smiles: CNCCN1CCC(c2ccc3[nH]c(-c4ccc(OC)c(OC)c4)c(C(C)C)c3c2)CC1
clearance [mL/min/kg]: 7.7

====

Property: pIC50; scope: individual compounds
# measured_on: UniProt Q9NYK1
# experiment_summary: Antagonist activity at human TLR7 overexpressed in HEK-Blue cells assessed as inhibition of gardiquimod-induced NFkappaB and AP-1 activation preincubated for 30 mins followed by gardiquimod stimulation measured after 22 hrs by quanti-blue SEAP assay
pIC50: −log10 of the molar value.

structure_as_smiles: CNCCN1CCC(c2ccc3[nH]c(-c4ccccc4OC)c(C)c3c2)CC1
inequality_sign: <
pIC50: 5.00
//
structure_as_smiles: CNCCN1CCC(c2ccc3[nH]c(-c4ccc(OC)c(OC)c4)c(C#N)c3c2)CC1
inequality_sign: <
pIC50: 5.00
//
structure_as_smiles: CNCCN1CCC(c2ccc3[nH]c(-c4ccc5c(c4)OCO5)c(C)c3c2)CC1
inequality_sign: =
pIC50: 6.19
//
structure_as_smiles: COc1ccc(-c2[nH]c3ccc(C4CCN(Cc5cncn5C)CC4)cc3c2C)cc1OC
inequality_sign: =
pIC50: 6.04

====

# experiment_summary: Volume of distribution in steady state in mouse at 3 mg/kg, iv
# Format: ADME, organism-based
# run_parameters: in vivo, read-out: Vdss
endpoint_name: Vd (L/kg)

structure_as_smiles: CNCCN1CCC(c2ccc3[nH]c(-c4ccc(OC)c(OC)c4)c(C(C)C)c3c2)CC1
unit_descriptor: L/kg
recorded_measurement: 20

====

Measured IC50 of individual entries
# measured_on: UniProtKB Q9NYK1
# experiment_summary: Antagonist activity at human TLR7 overexpressed in HEK-Blue cells assessed as inhibition of gardiquimod-induced NFkappaB and AP-1 activation preincubated for 30 mins followed by gardiquimod stimulation measured after 22 hrs by quanti-blue SEAP assay

structure_as_smiles: CNCCN1CCC(c2ccc3[nH]c(-c4ccc(C)cc4)c(C)c3c2)CC1
inequality_sign: >
IC50, µM: 10
--
structure_as_smiles: CNCCN1CCC(c2ccc3[nH]c(-c4ccc(OC)cc4)c(C)c3c2)CC1
inequality_sign: =
IC50, µM: 5.46
--
structure_as_smiles: COc1ccc(-c2[nH]c3ccc(C4CCN(C5CCN(C)CC5)CC4)cc3c2C)cc1OC
inequality_sign: =
IC50, µM: 0.73
--
structure_as_smiles: CNCCN1CCC(c2ccc3[nH]c(-c4cccc(C)c4)c(C)c3c2)CC1
inequality_sign: >
IC50, µM: 10
--
structure_as_smiles: CNCCN1CCC(c2ccc3[nH]c(-c4ccccc4)c(C)c3c2)CC1
inequality_sign: >
IC50, µM: 10
--
structure_as_smiles: COc1ccc(-c2[nH]c3ccc(C4CCN(C(C)=O)CC4)cc3c2C)cc1OC
inequality_sign: =
IC50, µM: 1.31
--
structure_as_smiles: CNCCN1CCC(c2ccc3[nH]c(-c4ccc(OC)cc4OC)c(C)c3c2)CC1
inequality_sign: >
IC50, µM: 10
--
structure_as_smiles: CNCCN1CCC(c2ccc3[nH]c(-c4ccccc4OC)c(F)c3c2)CC1
inequality_sign: =
IC50, µM: 0.61
--
structure_as_smiles: CNCCN1CCC(c2ccc3[nH]c(-c4cccc(C#N)c4)c(C)c3c2)CC1
inequality_sign: >
IC50, µM: 10
--
structure_as_smiles: CNCCN1CCC(c2ccc3[nH]c(-c4ccc(C(N)=O)cc4)c(C)c3c2)CC1
inequality_sign: =
IC50, µM: 16.6

====

# measured_on: Toll-like receptor 7 (Mus musculus)
# Sequence (P58681 whole entry): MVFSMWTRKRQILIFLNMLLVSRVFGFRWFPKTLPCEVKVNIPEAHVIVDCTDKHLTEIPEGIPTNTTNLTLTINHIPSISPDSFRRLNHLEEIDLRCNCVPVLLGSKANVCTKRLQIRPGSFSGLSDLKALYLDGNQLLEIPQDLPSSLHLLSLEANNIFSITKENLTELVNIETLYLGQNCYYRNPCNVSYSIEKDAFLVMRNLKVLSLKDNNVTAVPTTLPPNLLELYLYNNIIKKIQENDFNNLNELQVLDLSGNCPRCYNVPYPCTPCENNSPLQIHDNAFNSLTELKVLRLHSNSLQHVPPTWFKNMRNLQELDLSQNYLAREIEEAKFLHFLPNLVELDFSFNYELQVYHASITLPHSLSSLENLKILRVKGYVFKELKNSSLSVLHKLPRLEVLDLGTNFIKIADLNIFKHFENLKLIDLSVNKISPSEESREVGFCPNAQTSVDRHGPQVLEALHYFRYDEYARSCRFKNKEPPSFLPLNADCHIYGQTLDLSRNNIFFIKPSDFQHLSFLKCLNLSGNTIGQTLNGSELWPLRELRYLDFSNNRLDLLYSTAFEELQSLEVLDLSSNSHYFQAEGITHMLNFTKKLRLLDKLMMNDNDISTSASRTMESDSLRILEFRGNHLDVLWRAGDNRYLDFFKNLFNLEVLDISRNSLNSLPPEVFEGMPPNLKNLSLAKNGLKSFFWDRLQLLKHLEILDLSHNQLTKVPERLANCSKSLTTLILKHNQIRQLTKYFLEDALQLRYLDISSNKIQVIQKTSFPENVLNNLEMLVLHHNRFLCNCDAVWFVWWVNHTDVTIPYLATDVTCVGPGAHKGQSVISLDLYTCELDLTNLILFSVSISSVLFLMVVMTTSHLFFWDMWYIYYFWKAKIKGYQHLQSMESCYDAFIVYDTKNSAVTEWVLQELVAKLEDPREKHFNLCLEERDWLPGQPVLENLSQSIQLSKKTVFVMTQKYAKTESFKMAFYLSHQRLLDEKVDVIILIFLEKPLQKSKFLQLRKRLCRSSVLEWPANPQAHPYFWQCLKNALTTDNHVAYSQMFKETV
# experiment_summary: In vivo antagonist activity at TLR7 in po dosed C57BL/6 mouse assessed as reduction of gardiquimod-induced IL-6 production pretreated for 30 mins followed by gardiquimod-stimulation and measured after 120 mins by ELISA

structure_as_smiles: CNCCN1CCC(c2ccc3[nH]c(-c4ccc(OC)c(OC)c4)c(C(C)C)c3c2)CC1
measured_on: Toll-like receptor 7 (Mus musculus)
EC50 (nM): 2.4

====

# measured_on: Toll-like receptor 9 (Homo sapiens)
# experiment_summary: Antagonist activity at human TLR9 overexpressed in HEK-Blue cells assessed as inhibition of ODN2006-induced NFkappaB and AP-1 activation preincubated for 30 mins followed by ODN2006 stimulation measured after 22 hrs by quanti-blue SEAP assay
# Type: cell-based
pIC50: −log10 of the molar value.
Threshold check on pIC50: at or above 6 gives YES, strictly below gives NO.

structure_as_smiles: COc1ccc(-c2[nH]c3ccc(C4CCN(Cc5cncn5C)CC4)cc3c2C)cc1OC
measured_on: Toll-like receptor 9 (Homo sapiens)
class_assignment: NO
//
structure_as_smiles: CNCCN1CCC(c2ccc3[nH]c(-c4ccc(C)cc4)c(C)c3c2)CC1
measured_on: Toll-like receptor 9 (Homo sapiens)
class_assignment: NO
//
structure_as_smiles: CNCCN1CCC(c2ccc3[nH]c(-c4ccccc4OC)c(F)c3c2)CC1
measured_on: Toll-like receptor 9 (Homo sapiens)
class_assignment: NO
//
structure_as_smiles: CNCCN1CCC(c2ccc3[nH]c(-c4ccc(C(N)=O)cc4)c(C)c3c2)CC1
measured_on: Toll-like receptor 9 (Homo sapiens)
class_assignment: YES
//
structure_as_smiles: CCOc1cc(-c2[nH]c3ccc(C4CCN(CCNC)CC4)cc3c2C)ccc1OC(C)C
measured_on: Toll-like receptor 9 (Homo sapiens)
class_assignment: NO
//
structure_as_smiles: CNCCCN1CCC(c2ccc3[nH]c(-c4ccc(OC)c(OC)c4)c(C)c3c2)CC1
measured_on: Toll-like receptor 9 (Homo sapiens)
class_assignment: YES
//
structure_as_smiles: CNCCN1CCC(c2ccc3[nH]c(-c4cccc(C)c4)c(C)c3c2)CC1
measured_on: Toll-like receptor 9 (Homo sapiens)
class_assignment: NO
//
structure_as_smiles: CNCCN1CCC(c2ccc3[nH]c(-c4cccc(C#N)c4)c(C)c3c2)CC1
measured_on: Toll-like receptor 9 (Homo sapiens)
class_assignment: YES

====

List of pIC50 values.
# measured_on: Toll-like receptor 7 (Homo sapiens, UniProt Q9NYK1)
# Sequence (Q9NYK1 whole entry): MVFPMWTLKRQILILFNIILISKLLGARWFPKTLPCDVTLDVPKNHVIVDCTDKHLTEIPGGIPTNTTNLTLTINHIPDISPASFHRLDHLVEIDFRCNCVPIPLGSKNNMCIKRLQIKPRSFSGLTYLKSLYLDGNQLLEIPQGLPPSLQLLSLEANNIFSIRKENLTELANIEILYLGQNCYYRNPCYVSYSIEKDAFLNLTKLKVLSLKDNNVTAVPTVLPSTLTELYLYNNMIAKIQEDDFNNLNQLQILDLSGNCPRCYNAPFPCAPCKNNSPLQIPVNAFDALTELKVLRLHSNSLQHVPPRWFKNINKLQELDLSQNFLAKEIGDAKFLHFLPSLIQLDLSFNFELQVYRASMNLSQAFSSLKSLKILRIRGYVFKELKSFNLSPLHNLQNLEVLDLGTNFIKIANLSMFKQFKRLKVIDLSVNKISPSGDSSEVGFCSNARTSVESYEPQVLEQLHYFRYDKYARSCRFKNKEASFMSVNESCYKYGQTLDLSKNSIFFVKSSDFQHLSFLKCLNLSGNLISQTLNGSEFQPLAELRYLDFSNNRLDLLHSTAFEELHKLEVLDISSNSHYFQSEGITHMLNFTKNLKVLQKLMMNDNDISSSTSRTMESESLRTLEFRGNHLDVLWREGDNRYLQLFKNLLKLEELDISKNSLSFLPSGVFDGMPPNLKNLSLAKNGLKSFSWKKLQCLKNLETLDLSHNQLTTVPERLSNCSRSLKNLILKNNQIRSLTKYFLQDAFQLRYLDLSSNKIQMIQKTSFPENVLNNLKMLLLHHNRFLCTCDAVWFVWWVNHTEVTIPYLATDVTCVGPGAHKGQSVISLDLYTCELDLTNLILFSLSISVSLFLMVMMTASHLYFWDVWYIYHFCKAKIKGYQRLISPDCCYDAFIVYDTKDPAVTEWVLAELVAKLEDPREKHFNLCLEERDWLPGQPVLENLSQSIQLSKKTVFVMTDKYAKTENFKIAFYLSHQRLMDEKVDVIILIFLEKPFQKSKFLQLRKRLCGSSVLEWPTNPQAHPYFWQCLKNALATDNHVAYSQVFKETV
# experiment_summary: Antagonist activity at human TLR7 overexpressed in HEK-Blue cells assessed as inhibition of gardiquimod-induced NFkappaB and AP-1 activation preincubated for 30 mins followed by gardiquimod stimulation measured after 22 hrs by quanti-blue SEAP assay
pIC50: −log10 of the molar value.
endpoint_name: pIC50

compound: COc1ccc(-c2[nH]c3ccc(C4CCN(Cc5cnc(C)[nH]5)CC4)cc3c2C)cc1OC
inequality_sign: =
recorded_measurement: 5.46
--
compound: CNCCN1CCC(c2ccc3[nH]c(-c4cccc(OC)c4OC)c(C)c3c2)CC1
inequality_sign: <
recorded_measurement: 5.00
--
compound: COc1ccc(-c2[nH]c3ccc(C4CCN(CC5CCCCN5C)CC4)cc3c2C)cc1OC (stereo not given)
inequality_sign: =
recorded_measurement: 6.07
--
compound: CCc1c(-c2ccc(OC)c(OC)c2)[nH]c2ccc(C3CCN(CCNC)CC3)cc12
inequality_sign: =
recorded_measurement: 6.89
--
compound: CNCCN1CCC(c2ccc3[nH]c(-c4ccccc4C)c(C)c3c2)CC1
inequality_sign: <
recorded_measurement: 5.00
--
compound: CNCCN1CCC(c2ccc3[nH]c(-c4ccc(OC)c(OC)c4)c(C)c3c2)CC1
inequality_sign: =
recorded_measurement: 6.60
--
compound: CNCCN1CCC(c2ccc3[nH]c(-c4ccc(OC)c(OC)c4)c(CC(F)(F)F)c3c2)CC1
inequality_sign: =
recorded_measurement: 7.15
--
compound: CNCCN1CCC(c2ccc3[nH]c(-c4cccc(OC)c4)c(C)c3c2)CC1
inequality_sign: =
recorded_measurement: 5.21
--
compound: CNCCCN1CCC(c2ccc3[nH]c(-c4ccc(OC)c(OC)c4)c(C)c3c2)CC1
inequality_sign: =
recorded_measurement: 6.10
--
compound: CNCCN1CCC(c2ccc3[nH]c(-c4ccccc4C#N)c(C)c3c2)CC1
inequality_sign: <
recorded_measurement: 5.00

This collection of values is drawn from ChEMBL document CHEMBL4619828.
